Test system: Potassium voltage-gated channel subfamily H member 2, brain isoform KCNH2 3.1 (human)
Test protocol: qHTS for Inhibitors of KCHN2 3.1: Mutant qHTS; further: on the % scale 0 is the no-effect control and ±100 the full control effect
Test parameters: U2OS KCNH2 3.1, thallium flux FluxOr; hits give low values
Screen size: about 340,000 compounds; about 3,300 (0.97%) were called active. This excerpt belongs to a sample that is enriched for actives.
Measurement label: activity change (%)

Molecule | Measurement label | Display unit | Measured
COC(=O)C(Cc1c[nH]c2ccccc12)NC(=O)CCNC(=O)c1ccco1 (centres undefined) | activity change | % | 3.09
Cc1ccc(S(=O)(=O)N2C[C@H]3C(=O)C[C@@H](c4cccc5ccccc45)N(S(=O)(=O)c4ccc(C)cc4)[C@H]3C[C@H]2c2ccc(Cl)cc2)cc1 | activity change | % | 5.42
Cc1ccc(NC(=O)COC(=O)CN2CCSC2=O)cc1F | activity change | % | -8.22
C[C@H]1CN([C@@H](C)CO)C(=O)CCCn2cc(nn2)CO[C@@H]1CN(C)S(=O)(=O)c1cccc(C#N)c1 | activity change | % | -14.5

###

Tested on: Potassium voltage-gated channel subfamily H member 2, brain isoform KCNH2 3.1 (human)
Test protocol: qHTS for Inhibitors of KCHN2 3.1: Mutant qHTS; further: on the % scale 0 is the no-effect control and ±100 the full control effect
Test parameters: U2OS KCNH2 3.1, thallium flux FluxOr; hits give low values
Screen size: about 340,000 compounds; about 3,300 (0.97%) were called active. For the sample, actives were picked, then their nearest neighbours and some compounds at random.
Measurement label: activity change (%)

Compound | Measured
COC(=O)[C@H](Cc1ccccc1)NC(=O)[C@@H]1C[C@H]1[C@@H](NC(=O)OCc1ccccc1)c1ccccc1 | -95.1
Cc1ccc(COc2ccc(/C=N/NC(=O)CN3CCCCC3)cc2)cc1 | -108
COC(=O)c1ccc(CN2CCN(CCCc3ccccc3)C(CCO)C2)cc1 (configuration not stated) | -48.5
COC(=O)[C@@H](Cc1ccccc1)NC(=O)NCCc1ccccc1 | -9.89
Cc1ccccc1S(=O)(=O)N1[C@@H](c2cccc(Cl)c2)C(C(=O)O)=CC[C@H]1c1ccc(Cl)cc1 | 10
COc1ccccc1C(CNC(=O)c1cccc(S(=O)(=O)Nc2ccc(F)cc2)c1)N(C)C (configuration not stated) | 0.933
CNc1nc(Nc2ccc(C)c(Cl)c2)nc(N)c1[N+](=O)[O-] | 6.15
Cc1ccc(C(c2nnnn2CS(=O)(=O)c2ccc(C)cc2)N2CCC(C)CC2)cc1 (configuration not stated) | -72.8
CCCN1Cc2cccc(C(=O)NCc3ccccc3)c2C1=O | -73.5
CSc1ncc(C(=O)NCCCc2ccccc2)c(C)n1 | 17.9
CC1CCCC(NC(=O)COC(=O)c2ccccc2C(=O)N(C)C2CCCCC2)C1C (configuration not stated) | 7.73
CCOC(=O)N1CCN(Cc2nc3cc(NC(C)=O)ccc3n2C)CC1 | 8.13
O=C(O)CCCN1C(=O)c2ccccc2Sc2ncccc21 | -3.66
O=C(NCCN1CCOCC1)c1cccc(S(=O)(=O)Nc2ccc(F)cc2)c1 | -9.37
COC(=O)C[C@H]1C[C@@H]2c3cc(N(C)C)ccc3O[C@@H]2[C@H](CO)O1 | 2.06
OCCC1CN(Cc2ccc(Oc3ncccn3)cc2)CCN1CCc1ccccc1 (configuration not stated) | -3.13
CCOC(=O)N1CCN(Cc2nc(N)nc(Nc3ccc(C)cc3)n2)CC1 | -78.5
CCOC(=O)C1CCN(C(=O)c2ccc3c(=O)n4nc(Nc5ccccc5CC)sc4nc3c2)CC1 | -6.19
COc1cc(NC(=O)c2[nH]cnc2C(N)=O)cc(C(=O)Nc2cccc(C(F)(F)F)c2)c1 | -24.6
COc1ccc(CN2C(=O)C(CC(=O)NCc3cccc4ccccc34)CC(C(=O)N3CCOCC3)=C2C)cc1 (configuration not stated) | 6.14
Cc1ccc(C(c2nnnn2CS(=O)(=O)c2ccc(C)cc2)N2CCC(C(N)=O)CC2)cc1 (configuration not stated) | 1.37
COc1cccc(NC(=O)CN(C)C(C)C(=O)Nc2ccc(C#N)cc2)c1 (configuration not stated) | 3.52
Cc1ccccc1Nc1nc(N)nc(CN2CCN(c3ccccn3)CC2)n1 | -0.0863
CCCCC(c1nnnn1CS(=O)(=O)c1ccc(C)cc1)N1CCC(C(N)=O)CC1 (configuration not stated) | 5.52
COc1ccc(NC(=O)CN2C(=O)NC(C)(c3ccccc3)C2=O)cn1 (configuration not stated) | -3.34
CC(C)[C@H](NC(=O)c1ccccc1F)C(=O)Nc1cccc(S(=O)(=O)N2CCOCC2)c1 | 9.74
C=CCNC(=O)COC(=O)c1ccccc1C(=O)N(C)C1CCCCC1 | -110
O=C1CCC(=O)N1CCC(=O)N(C(=O)NC1CCCCC1)C1CCCCC1 | -16.1
CCOc1cc(/C=N/NC(=O)CN2CCCCC2)ccc1O | 1.68
Cc1ccc(Nc2nc(N)nc(CN3CCN(Cc4ccccc4)CC3)n2)cc1Cl | -99.4
COc1ccc(N2CC(NS(=O)(=O)c3ccc4ccccc4c3)CC2=O)cc1 (configuration not stated) | -102
O=C(CCCN1C(=O)C2C3C=CC(C3)C2C1=O)N1CCN(c2ccccc2)CC1 (configuration not stated) | 7.28
O=C(NCc1ccccc1CN1CCCC1)c1cccc(S(=O)(=O)Nc2ccc(F)cc2)c1 | -81.1
CCOC(=O)N1CCN(CC(=O)Nc2ccc(F)cc2)CC1 | -43.8
COc1cc(C=NC2CCCCC2)ccc1O | -7.89
CCCN1Cc2cccc(C(=O)Nc3ccc(S(=O)(=O)N4CCCCCC4)cc3)c2C1=O | -4.68
CN(Cc1ccccc1)C(=O)CCC1CCN(C(=O)c2ccco2)CC1 | -7.93
Nc1ccc2nc3c(=O)[nH]c(=S)[nH]c3nc2c1 | -92.4
COc1cccc(N2CC(NS(=O)(=O)c3ccc(Cl)cc3)CC2=O)c1 (configuration not stated) | 25.6
Cc1cccc(C(=O)OCC(=O)Nc2sccc2C(N)=O)c1C | 0.26
CC(C)NC(=O)Nc1ccc2c(c1)C(=O)N([C@H](C)CO)C[C@H](C)[C@@H](CN(C)Cc1ccc(C(F)(F)F)cc1)OCCCC[C@@H](C)O2 | -29.9
C=CCOc1ccccc1CNn1c(C)n[nH]c1=S | 3.24
